- ASSAY SYSTEM: GDP-loaded KRAS G12D (Homo sapiens, UniProt P01116, G12D)
- Sequence (P01116 1-188 isoform P01116-2 G12D): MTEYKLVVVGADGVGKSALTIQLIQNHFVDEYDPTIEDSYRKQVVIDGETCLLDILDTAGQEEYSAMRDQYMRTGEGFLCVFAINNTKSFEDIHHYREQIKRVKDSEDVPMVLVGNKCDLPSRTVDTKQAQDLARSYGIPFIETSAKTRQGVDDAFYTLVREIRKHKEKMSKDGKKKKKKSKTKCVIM
- PROCEDURE TEXT: KRAS G12D Probe Displacement Assay
- Assay type: binding
- CONDITION: KRAS G12D 0.5 nM, biotinylated probe 2 4 nM; read-out: KRAS G12D Probe Displacement Assay IC50
IC50 under 0.4 nM gets Condition met, anything at or over 0.4 nM gets Condition not met.

Here's an entry: Nc1nc2c(-c3c(C(F)(F)F)cc4c(N5CC6CCC(C5)N6)nc(OC[C@@]56CCCN5C[C@H](F)C6)nc4c3F)c(F)cc(F)c2s1 [Example E84] . Is its IC50 below 0.4 nM?
Condition met

Here's an entry: CC1CCCC(C)N1C[C@H](C)Oc1nc(N2CC3CCC(C2)N3)c2cc(Cl)c(-c3ccc(F)c4sc(N)nc34)c(F)c2n1 (stereo partly shown) [Example E38] . Is its IC50 below 0.4 nM?
Condition not met

Here's an entry: Nc1nc2c(-c3c(Cl)cc4c(N5CC6CCC(C5)N6)nc(OCC56CCCN5CC(F)C6)nc4c3F)ccc(F)c2s1 (stereo not shown) [Example E54] . Is its IC50 below 0.4 nM?
Condition met

Here's an entry: C=Cc1cc2c(N3CC4CCC(C3)N4)nc(OC[C@@H]3C[C@@H](F)CN3C)nc2c(F)c1-c1ccc(F)c2sc(N)nc12 [Example E66] . Is its IC50 below 0.4 nM?
Condition not met

Here's an entry: C=C(C)c1cc2c(N3CC4CCC(C3)N4)nc(OC[C@@]34CCCN3C[C@H](F)C4)nc2c(F)c1-c1ccc(F)c2sc(N)nc12 [Example E69] . Is its IC50 below 0.4 nM?
Condition not met

Here's an entry: C[C@@H](CN1CCC(F)CC1(C)C)Oc1nc(N2CC3CCC(C2)N3)c2cc(C(F)(F)F)c(-c3ccc(F)c4sc(N)nc34)c(F)c2n1 (stereo partly shown) [Example E72] . Is its IC50 below 0.4 nM?
Condition not met

Here's an entry: Nc1nc2c(-c3c(C(F)(F)F)cc4c(N5CC6CCC(C5)N6)nc(OC[C@@]56CCCN5C[C@H](F)C6)nc4c3F)cc(F)c(F)c2s1 [Example E85] . Is its IC50 below 0.4 nM?
Condition met

Here's an entry: CN1C[C@H](F)C[C@H]1COc1nc(N2C3CCC2CNC3)c2cc(Cl)c(-c3ccc(F)c4sc(N)nc34)c(F)c2n1 [Example E36] . Is its IC50 below 0.4 nM?
Condition not met

Here's an entry: CNC1C[C@H]2CC[C@@H]1N2c1nc(OC[C@@H]2C[C@@H](F)CN2C)nc2c(F)c(-c3ccc(F)c4sc(N)nc34)c(Cl)cc12 (stereo partly shown) [Example E59] . Is its IC50 below 0.4 nM?
Condition not met

Here's an entry: Nc1nc2c(-c3c(C(F)(F)F)cc4c(N5C6CCC5CNC6)nc(OC[C@@]56CCCN5C[C@H](F)C6)nc4c3F)ccc(F)c2s1 [Example E60] . Is its IC50 below 0.4 nM?
Condition met

Here's an entry: Nc1nc2c(-c3c(C(F)(F)F)cc4c(N5CC6CCC(C5)N6)nc(OC[C@@]56CCCN5C[C@H](F)C6)nc4c3Cl)ccc(Cl)c2s1 [Example E82] . Is its IC50 below 0.4 nM?
Condition met

Here's an entry: Nc1cc(Cl)c(C(F)(F)F)c(-c2c(Cl)cc3c(N4CC5CCC(C4)N5)nc(OC[C@@]45CCCN4C[C@H](F)C5)nc3c2F)c1 [Example E80] . Is its IC50 below 0.4 nM?
Condition not met

Here's an entry: C[C@@H](CN1CCOCC1)Oc1nc(N2C3CCC2CNC3)c2cc(Cl)c(-c3ccc(F)c4sc(N)nc34)c(F)c2n1 [Example E41] . Is its IC50 below 0.4 nM?
Condition not met
